# Assayed Target: HDAC3/N-CoR2 (Homo sapiens)
# Sequence (O15379 whole entry): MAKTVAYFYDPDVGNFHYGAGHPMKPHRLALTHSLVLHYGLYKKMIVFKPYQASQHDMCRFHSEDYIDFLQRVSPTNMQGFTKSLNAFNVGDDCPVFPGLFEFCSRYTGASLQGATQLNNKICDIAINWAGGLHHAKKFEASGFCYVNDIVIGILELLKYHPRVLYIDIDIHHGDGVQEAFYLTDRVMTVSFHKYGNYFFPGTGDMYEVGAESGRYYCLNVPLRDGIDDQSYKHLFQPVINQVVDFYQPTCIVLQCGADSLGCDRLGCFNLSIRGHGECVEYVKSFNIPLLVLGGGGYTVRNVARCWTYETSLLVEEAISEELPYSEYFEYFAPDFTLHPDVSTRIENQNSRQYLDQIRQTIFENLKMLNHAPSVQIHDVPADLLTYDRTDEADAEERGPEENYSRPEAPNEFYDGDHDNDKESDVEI
# Sequence (Q9Y618 395-489 partner limits assumed): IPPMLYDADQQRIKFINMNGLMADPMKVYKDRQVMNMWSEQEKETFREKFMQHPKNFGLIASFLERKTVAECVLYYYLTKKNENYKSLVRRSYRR
# Assay Text: HDAC deacetylase homogenous fluorescence assay, HDAC3
# Assay type: biochemical
# Particulars: read-out: HDAC3 IC50; 12 point titration, acetylated substrate
Readout: pIC50
To interpret pIC50, take it as minus log10 of a concentration measured in moles per litre.

IN: Which measured pIC50 value corresponds to COc1ccc2c(c1)CC[C@@H]1[C@@H]2CC[C@]2(C)[C@@H](NCCCCCCN3C(=O)C=CC3=O)CC[C@@H]12 ?
OUT: 5.21

IN: What about NC(N)=Nc1ccc2[nH]c3c(c2c1)C[C@@]1(O)[C@H]2Cc4ccc(O)c5c4[C@@]1(CCN2CC1CC1)[C@H]3O5 ?
OUT: 4.64

IN: Another compound: OC[C@H]1O[C@H]([S-])[C@H](O)[C@@H](O)[C@@H]1O.[Au+] [Aurothioglucose, 1-thio-D-glucopyronaose gold salt]
OUT: 4.94

###

# Assayed Target: HDAC6 (Homo sapiens)
# Sequence (Q9UBN7 1-1215): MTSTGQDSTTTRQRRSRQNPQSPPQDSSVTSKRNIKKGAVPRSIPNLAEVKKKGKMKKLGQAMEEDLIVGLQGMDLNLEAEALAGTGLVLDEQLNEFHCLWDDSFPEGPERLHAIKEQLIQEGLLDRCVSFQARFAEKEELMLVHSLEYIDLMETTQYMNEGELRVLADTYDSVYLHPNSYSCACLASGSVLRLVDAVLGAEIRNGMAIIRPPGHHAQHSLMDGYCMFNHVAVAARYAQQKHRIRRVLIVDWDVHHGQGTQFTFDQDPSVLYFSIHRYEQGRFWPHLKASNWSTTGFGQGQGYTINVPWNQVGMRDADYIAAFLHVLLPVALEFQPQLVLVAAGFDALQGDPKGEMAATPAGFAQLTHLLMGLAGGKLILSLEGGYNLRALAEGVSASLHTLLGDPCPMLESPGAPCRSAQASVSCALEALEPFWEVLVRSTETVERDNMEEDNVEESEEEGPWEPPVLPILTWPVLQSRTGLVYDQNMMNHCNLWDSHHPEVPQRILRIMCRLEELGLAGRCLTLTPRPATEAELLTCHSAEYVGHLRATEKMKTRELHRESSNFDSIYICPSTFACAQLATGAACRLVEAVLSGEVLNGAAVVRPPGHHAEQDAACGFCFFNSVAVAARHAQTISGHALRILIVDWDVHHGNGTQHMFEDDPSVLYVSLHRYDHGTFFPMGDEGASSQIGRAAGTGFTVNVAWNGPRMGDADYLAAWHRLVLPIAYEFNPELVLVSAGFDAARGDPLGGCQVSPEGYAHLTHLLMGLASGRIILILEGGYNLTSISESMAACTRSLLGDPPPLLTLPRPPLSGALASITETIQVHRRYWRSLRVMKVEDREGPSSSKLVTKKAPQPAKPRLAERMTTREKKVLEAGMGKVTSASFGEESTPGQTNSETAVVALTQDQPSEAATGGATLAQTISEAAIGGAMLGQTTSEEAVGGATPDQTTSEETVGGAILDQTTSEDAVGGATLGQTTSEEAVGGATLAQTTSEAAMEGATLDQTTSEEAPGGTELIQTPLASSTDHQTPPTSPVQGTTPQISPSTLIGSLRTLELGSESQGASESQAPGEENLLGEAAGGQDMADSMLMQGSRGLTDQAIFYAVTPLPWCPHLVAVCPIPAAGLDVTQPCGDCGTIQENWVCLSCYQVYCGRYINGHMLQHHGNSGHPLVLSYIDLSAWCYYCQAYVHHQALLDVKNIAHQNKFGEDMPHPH
# Assay Text: HDAC deacetylase homogenous fluorescence assay, HDAC6
# Type: biochemical
Please respond with reported pIC50 for every item in the list.
Answer as the number alone; pIC50 is minus log10 of concentration in mol/L.

IN: Please look up its pIC50: O=C1C(SCCO)=C(SCCO)C(=O)c2ccccc21
OUT: 4.90

IN: Try this molecule next: CC1=CC(=O)c2ccccc2C1=O
OUT: 4.60

IN: Entry to check: O=c1c2ccccc2[se]n1-c1ccccc1
OUT: 4.89

###

# Assayed Target: HDAC1 (Homo sapiens, UniProt Q13547)
# Sequence (Q13547 whole entry): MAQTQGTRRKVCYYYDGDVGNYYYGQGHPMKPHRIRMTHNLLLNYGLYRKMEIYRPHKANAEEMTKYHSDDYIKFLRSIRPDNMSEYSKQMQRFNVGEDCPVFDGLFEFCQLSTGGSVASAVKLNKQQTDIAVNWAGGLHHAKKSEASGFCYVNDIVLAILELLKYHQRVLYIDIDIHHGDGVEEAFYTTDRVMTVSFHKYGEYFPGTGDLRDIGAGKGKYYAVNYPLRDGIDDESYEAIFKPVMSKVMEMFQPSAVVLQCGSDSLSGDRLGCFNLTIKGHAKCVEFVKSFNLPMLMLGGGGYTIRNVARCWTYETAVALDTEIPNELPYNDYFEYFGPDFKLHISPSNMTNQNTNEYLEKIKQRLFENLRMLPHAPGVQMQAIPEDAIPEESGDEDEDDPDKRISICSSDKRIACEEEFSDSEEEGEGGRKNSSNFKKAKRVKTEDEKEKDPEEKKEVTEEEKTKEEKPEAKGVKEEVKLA
# Assay Text: HDAC deacetylase homogenous fluorescence assay, HDAC1
# Type: biochemical
Readout: pKi
// field semantics: pKi = negative decimal log of concentration (mol/L)

IN: For O=c1c2ccccc2[se]n1-c1ccccc1 [Ebselen, 2-phenyl-1,2-benzisoselenazol-3(2H)-one] , what is its reported pKi?
OUT: 6.82

###

# Assayed Target: UniProt Q969S8
# Sequence (Q969S8 whole entry): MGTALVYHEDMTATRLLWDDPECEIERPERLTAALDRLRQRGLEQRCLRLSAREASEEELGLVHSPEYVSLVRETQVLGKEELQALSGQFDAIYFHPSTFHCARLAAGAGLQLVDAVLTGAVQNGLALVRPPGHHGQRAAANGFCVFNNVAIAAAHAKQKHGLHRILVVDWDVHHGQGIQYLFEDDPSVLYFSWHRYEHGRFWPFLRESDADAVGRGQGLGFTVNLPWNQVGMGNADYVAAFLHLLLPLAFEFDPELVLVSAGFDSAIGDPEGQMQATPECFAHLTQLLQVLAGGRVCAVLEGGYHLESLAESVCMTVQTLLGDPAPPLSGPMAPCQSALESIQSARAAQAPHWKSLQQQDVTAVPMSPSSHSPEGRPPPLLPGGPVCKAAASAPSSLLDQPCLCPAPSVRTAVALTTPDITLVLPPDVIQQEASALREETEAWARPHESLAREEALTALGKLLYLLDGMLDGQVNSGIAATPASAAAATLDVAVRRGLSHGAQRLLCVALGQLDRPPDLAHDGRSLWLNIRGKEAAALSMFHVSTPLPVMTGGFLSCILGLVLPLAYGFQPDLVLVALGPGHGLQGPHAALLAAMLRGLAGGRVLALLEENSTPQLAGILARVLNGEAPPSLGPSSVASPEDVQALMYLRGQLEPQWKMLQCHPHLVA
# Assay Text: HDAC deacetylase homogenous fluorescence assay, HDAC10
# Type: biochemical
Readout: Ki (µM)
Answer with a number only, understood to be in µM.

IN: I have this compound here, O=c1c2ccccc2[se]n1-c1ccccc1 , and I need its recorded Ki.
OUT: 0.42

IN: And the next one, O=C1C(SCCO)=C(SCCO)C(=O)c2ccccc21 ?
OUT: 6.4

###

# Assayed Target: HDAC5 (Homo sapiens, UniProt Q9UQL6)
# Sequence (Q9UQL6 whole entry): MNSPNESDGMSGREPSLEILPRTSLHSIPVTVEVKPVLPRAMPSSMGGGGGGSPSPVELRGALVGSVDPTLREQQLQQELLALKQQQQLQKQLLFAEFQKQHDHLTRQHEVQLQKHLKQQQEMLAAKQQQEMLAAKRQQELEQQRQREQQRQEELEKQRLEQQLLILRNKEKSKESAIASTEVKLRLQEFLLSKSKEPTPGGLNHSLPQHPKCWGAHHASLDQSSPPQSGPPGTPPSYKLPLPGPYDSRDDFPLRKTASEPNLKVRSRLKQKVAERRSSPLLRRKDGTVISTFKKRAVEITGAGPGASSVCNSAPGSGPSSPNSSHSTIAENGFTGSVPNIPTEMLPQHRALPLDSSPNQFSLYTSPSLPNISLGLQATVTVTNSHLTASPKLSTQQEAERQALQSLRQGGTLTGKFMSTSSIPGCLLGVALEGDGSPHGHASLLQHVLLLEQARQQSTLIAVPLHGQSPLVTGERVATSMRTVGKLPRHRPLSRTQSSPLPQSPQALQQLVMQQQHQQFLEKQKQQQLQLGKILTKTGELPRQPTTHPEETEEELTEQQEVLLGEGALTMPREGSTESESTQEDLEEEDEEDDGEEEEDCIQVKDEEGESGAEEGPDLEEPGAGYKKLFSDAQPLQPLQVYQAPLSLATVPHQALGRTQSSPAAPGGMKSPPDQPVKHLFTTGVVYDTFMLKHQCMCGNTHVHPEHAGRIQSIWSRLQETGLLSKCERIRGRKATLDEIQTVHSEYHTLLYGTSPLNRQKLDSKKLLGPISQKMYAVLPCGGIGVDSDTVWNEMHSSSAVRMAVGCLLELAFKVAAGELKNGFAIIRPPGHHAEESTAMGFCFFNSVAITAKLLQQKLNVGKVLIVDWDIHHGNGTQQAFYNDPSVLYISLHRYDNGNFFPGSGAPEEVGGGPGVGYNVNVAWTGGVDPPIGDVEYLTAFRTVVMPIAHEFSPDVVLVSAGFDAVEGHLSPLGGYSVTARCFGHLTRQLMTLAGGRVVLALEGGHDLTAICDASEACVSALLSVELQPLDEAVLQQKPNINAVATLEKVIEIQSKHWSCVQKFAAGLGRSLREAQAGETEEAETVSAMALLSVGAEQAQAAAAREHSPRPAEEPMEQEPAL
# Assay Text: HDAC deacetylase homogenous fluorescence assay, HDAC5
# Format: biochemical
# Particulars: read-out: HDAC5 IC50; 12 point titration, trifluoroacetylated substrate
Readout: IC50

IN: Would you mind telling me what IC50 value was observed for OC[C@H]1O[C@H]([S-])[C@H](O)[C@@H](O)[C@@H]1O.[Au+] [Aurothioglucose, 1-thio-D-glucopyronaose gold salt] ?
OUT: 720 nM

IN: Do the same for NC(N)=Nc1ccc2[nH]c3c(c2c1)C[C@@]1(O)[C@H]2Cc4ccc(O)c5c4[C@@]1(CCN2CC1CC1)[C@H]3O5 please
OUT: 700 nM

IN: Next compound up: COc1ccc2c(c1)CC[C@@H]1[C@@H]2CC[C@]2(C)[C@@H](NCCCCCCN3C(=O)C=CC3=O)CC[C@@H]12
OUT: 10500 nM

###

# Assayed Target: HDAC4 (Homo sapiens, UniProt P56524)
# Sequence (P56524 whole entry): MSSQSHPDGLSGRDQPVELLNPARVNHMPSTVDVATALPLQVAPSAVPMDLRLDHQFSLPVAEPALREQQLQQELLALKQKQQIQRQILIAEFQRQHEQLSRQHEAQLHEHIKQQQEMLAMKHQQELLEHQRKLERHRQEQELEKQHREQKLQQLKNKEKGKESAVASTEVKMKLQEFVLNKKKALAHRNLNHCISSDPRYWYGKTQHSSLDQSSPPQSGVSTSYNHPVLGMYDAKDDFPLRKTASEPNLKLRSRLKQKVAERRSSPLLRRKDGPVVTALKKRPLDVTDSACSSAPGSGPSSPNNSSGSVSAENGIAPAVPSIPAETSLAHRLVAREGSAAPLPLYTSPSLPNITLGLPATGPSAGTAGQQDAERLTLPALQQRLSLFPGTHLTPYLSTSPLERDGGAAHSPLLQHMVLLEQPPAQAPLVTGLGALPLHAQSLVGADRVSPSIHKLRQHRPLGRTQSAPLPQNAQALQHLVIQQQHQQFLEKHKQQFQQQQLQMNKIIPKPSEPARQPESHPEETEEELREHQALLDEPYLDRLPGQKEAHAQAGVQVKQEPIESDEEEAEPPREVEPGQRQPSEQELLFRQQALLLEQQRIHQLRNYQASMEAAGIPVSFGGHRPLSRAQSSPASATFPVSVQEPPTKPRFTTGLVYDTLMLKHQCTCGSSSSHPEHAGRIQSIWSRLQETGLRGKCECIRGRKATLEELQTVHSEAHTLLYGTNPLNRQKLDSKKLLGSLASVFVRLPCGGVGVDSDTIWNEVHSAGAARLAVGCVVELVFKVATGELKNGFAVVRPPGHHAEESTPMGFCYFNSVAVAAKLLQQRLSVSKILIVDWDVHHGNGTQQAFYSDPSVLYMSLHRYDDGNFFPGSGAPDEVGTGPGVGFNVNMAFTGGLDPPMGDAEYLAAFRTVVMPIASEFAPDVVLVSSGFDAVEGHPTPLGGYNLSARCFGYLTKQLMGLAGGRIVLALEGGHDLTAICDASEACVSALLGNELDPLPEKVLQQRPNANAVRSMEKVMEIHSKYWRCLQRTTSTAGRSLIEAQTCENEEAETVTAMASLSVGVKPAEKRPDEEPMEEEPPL
# Assay Text: HDAC deacetylase homogenous fluorescence assay, HDAC4
# Type: biochemical
# Particulars: read-out: HDAC4 Ki; converted from IC50 using Cheng-Prusoff equation
Readout: Ki (nM)
Your answer should be a plain number; it is taken to be in nM.

IN: For the compound shown here, COc1ccc2c(c1)CC[C@@H]1[C@@H]2CC[C@]2(C)[C@@H](NCCCCCCN3C(=O)C=CC3=O)CC[C@@H]12 , give the reported Ki.
OUT: 5330

IN: Same lookup for NC(N)=Nc1ccc2[nH]c3c(c2c1)C[C@@]1(O)[C@H]2Cc4ccc(O)c5c4[C@@]1(CCN2CC1CC1)[C@H]3O5 , please.
OUT: 2290

IN: Query OC[C@H]1O[C@H]([S-])[C@H](O)[C@@H](O)[C@@H]1O.[Au+] [Aurothioglucose, 1-thio-D-glucopyronaose gold salt] next
OUT: 700

###

The reader will find pKi measurements below, all made with UniProtKB Q92769.
Sequence (Q92769 whole entry): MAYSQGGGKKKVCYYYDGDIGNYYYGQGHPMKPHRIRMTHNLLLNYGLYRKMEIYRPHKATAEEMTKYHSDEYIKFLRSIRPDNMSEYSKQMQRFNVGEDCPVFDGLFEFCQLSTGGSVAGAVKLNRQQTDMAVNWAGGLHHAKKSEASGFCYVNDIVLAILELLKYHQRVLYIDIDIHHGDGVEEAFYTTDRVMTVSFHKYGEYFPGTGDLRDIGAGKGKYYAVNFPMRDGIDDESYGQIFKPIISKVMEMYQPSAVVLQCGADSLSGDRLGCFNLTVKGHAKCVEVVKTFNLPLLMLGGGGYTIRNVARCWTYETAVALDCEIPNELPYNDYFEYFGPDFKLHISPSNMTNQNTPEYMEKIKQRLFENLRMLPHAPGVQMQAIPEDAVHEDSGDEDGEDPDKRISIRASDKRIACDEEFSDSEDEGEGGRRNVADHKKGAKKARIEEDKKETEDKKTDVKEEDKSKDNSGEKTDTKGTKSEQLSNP
Lab note — pKi values are minus log10 of concentrations in M.

IN: # query: pKi | item NC(N)=Nc1ccc2[nH]c3c(c2c1)C[C@@]1(O)[C@H]2Cc4ccc(O)c5c4[C@@]1(CCN2CC1CC1)[C@H]3O5 | system: UniProtKB Q92769
OUT: 5.83

IN: Try this molecule next: O=c1c2ccccc2[se]n1-c1ccccc1
OUT: 7.10

###

Exercise: for every item that follows, state its recorded IC50.
# Assayed Target: HDAC8 (Homo sapiens, UniProt Q9BY41)
# Sequence (Q9BY41 whole entry): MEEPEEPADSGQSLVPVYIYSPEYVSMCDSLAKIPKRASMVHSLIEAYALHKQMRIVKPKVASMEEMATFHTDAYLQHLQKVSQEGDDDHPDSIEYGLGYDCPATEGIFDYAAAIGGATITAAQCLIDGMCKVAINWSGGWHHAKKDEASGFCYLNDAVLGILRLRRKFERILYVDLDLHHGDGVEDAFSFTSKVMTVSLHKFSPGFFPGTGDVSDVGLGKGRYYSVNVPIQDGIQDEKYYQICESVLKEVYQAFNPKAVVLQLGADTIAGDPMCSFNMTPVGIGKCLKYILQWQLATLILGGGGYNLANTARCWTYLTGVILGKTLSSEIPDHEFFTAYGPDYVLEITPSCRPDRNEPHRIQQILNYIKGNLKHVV
# Assay Text: HDAC deacetylase homogenous fluorescence assay, HDAC8
# Format: biochemical
Lab note: write values as number then unit, every time.

IN: Reported IC50, compound O=c1c2ccccc2[se]n1-c1ccccc1 : ____
OUT: 350 nM

IN: Follow-up entry: O=C1C(SCCO)=C(SCCO)C(=O)c2ccccc21
OUT: 1300 nM

###

# Assayed Target: UniProt:Q969S8
# Assay Text: HDAC deacetylase homogenous fluorescence assay, HDAC10
# Type: biochemical
Could you please report measured IC50 for the items listed next?
Give just the number in µM; leave the unit off.

IN: Find the recorded IC50 belonging to O=c1c2ccccc2[se]n1-c1ccccc1 and report it.
OUT: 0.95

IN: What about O=C1C(SCCO)=C(SCCO)C(=O)c2ccccc21 ?
OUT: 14.5

###

# Assayed Target: HDAC4 (Homo sapiens, UniProt P56524)
# Assay Text: HDAC deacetylase homogenous fluorescence assay, HDAC4
# Type: biochemical
# Particulars: read-out: HDAC4 IC50; 12 point titration, trifluoroacetylated substrate
Readout: IC50 (µM)
Expressed in µM, but write only the number.

IN: Which IC50 value is on record for COc1ccc2c(c1)CC[C@@H]1[C@@H]2CC[C@]2(C)[C@@H](NCCCCCCN3C(=O)C=CC3=O)CC[C@@H]12 ?
OUT: 31.2

IN: Moving on to OC[C@H]1O[C@H]([S-])[C@H](O)[C@@H](O)[C@@H]1O.[Au+] [Aurothioglucose, 1-thio-D-glucopyronaose gold salt]
OUT: 4.1

IN: Same question for NC(N)=Nc1ccc2[nH]c3c(c2c1)C[C@@]1(O)[C@H]2Cc4ccc(O)c5c4[C@@]1(CCN2CC1CC1)[C@H]3O5 please.
OUT: 13.4

Ref: paper PMC3288198
